# assay method text: Acute toxicity in mice, single oral administration
# condition parameters: CD-1, mouse, in vivo, oral; per os, male mice, single dose
property label: LD50

In: Data request, read-out LD50, for CC(=O)C1=C(O)C=C2Oc3c(-c4csc(N/N=C/c5ccc(Br)cc5)n4)c(O)c(C)c(O)c3C2(C)C1=O (stereo not shown)
Out: > 5000 mg/kg
